# Target: Adenosine receptor A1 (Homo sapiens) (UniProt P30542)
# Method description: Displacement of [3H]R-PIA from human recombinant A1 adenosine receptor expressed in CHO cells at 10 uM after 60 mins by liquid scintillation counting
# Format: cell-based
# inhibition listing for each entry below
Just the number please, in %, no unit attached.

| Compound structure | Target | Unit name | inhibition |
| --- | --- | --- | --- |
| CNC(=O)[C@@]12C[C@@H]1[C@@H](n1cnc3c(NC)nc(C#Cc4cccc(OC)c4)nc31)[C@H](O)[C@@H]2O | Adenosine receptor A1 (Homo sapiens) (UniProt P30542) | % | 8 |
| CNC(=O)[C@@]12C[C@@H]1[C@@H](n1cnc3c(NC)nc(C#Cc4ccccn4)nc31)[C@H](O)[C@@H]2O | Adenosine receptor A1 (Homo sapiens) (UniProt P30542) | % | 13 |

## Task // lookup inhibition | system=Adenosine receptor A1 (Homo sapiens) (UniProt P30542) | key= "CNC(=O)[C@@]12C[C@@H]1[C@@H](n1cnc3c(NC)nc(C#Cc4ncccn4)nc31)[C@H](O)[C@@H]2O"
## Result 25

## Task Param readout = inhibition; param system = Adenosine receptor A1 (Homo sapiens) (UniProt P30542); param query = "CNC(=O)[C@@]12C[C@@H]1[C@@H](n1cnc3c(NC)nc(C#Cc4ccc(Cl)s4)nc31)[C@H](O)[C@@H]2O" ; response: value
## Result 6

====

# Test system: Mus musculus
# Method description: Antinociceptive activity in chronic constriction injury neutropathic pain CD-1 mouse model assessed as time for peak protection at 3 umol/kg, po
# Assay type: functional
Measured Time values are reported for all entries that follow.
The figure you give is taken to be in h; do not add the unit.

| Compound structure | Unit name | Measured number |
| --- | --- | --- |
| CCc1ccc(C#Cc2nc(NC)c3ncn([C@H]4[C@H](O)[C@H](O)[C@]5(C(=O)NC)C[C@H]45)c3n2)o1 | h | 1 |
| CNC(=O)[C@@]12C[C@@H]1[C@@H](n1cnc3c(NC)nc(C#Cc4ccccc4F)nc31)[C@H](O)[C@@H]2O | h | 0.5 |
| CNC(=O)[C@@]12C[C@@H]1[C@@H](n1cnc3c(NC)nc(C#Cc4cccnc4)nc31)[C@H](O)[C@@H]2O | h | 0.5 |
| CNC(=O)[C@@]12C[C@@H]1[C@@H](n1cnc3c(NC)nc(C#Cc4ccc(Br)s4)nc31)[C@H](O)[C@@H]2O | h | 1 |
| CNC(=O)[C@@]12C[C@@H]1[C@@H](n1cnc3c(NC)nc(C#Cc4cnn(C)c4)nc31)[C@H](O)[C@@H]2O | h | 1 |

## Task Recorded Time for "CNC(=O)[C@@]12C[C@@H]1[C@@H](n1cnc3c(NC)nc(C#Cc4ncccn4)nc31)[C@H](O)[C@@H]2O" , please?
## Result 0.5

## Task Entry "CNC(=O)[C@@]12C[C@@H]1[C@@H](n1cnc3c(NC)nc(C#Cc4ccccc4Cl)nc31)[C@H](O)[C@@H]2O" : reported Time = ?
## Result 0.5

====

As an illustration, consider measured IC50 for compounds on Cytochrome P450 2C19 (Homo sapiens, UniProt P33261).
Sequence (P33261 whole entry): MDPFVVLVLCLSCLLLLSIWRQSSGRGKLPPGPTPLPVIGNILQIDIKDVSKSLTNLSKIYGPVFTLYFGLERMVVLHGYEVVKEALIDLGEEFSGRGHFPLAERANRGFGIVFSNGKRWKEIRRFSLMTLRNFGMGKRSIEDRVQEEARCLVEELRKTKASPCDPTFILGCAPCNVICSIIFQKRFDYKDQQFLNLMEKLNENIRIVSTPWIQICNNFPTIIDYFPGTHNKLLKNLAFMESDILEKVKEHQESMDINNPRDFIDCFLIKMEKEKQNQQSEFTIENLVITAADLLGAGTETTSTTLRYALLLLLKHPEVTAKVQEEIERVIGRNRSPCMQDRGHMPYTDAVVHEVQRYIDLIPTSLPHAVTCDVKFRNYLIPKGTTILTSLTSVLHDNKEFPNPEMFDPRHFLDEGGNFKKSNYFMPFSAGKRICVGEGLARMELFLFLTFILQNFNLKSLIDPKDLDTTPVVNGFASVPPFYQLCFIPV

| Compound structure | Metric name | Result |
| --- | --- | --- |
| CNC(=O)[C@@]12C[C@@H]1[C@@H](n1cnc3c(NC)nc(C#Cc4ccc(Cl)s4)nc31)[C@H](O)[C@@H]2O | IC50 | > 10 µM |

Now look at this entry.
## Task Consider the compound shown here: "CNC(=O)[C@@]12C[C@@H]1[C@@H](n1cnc3c(NC)nc(C#Cc4cnccn4)nc31)[C@H](O)[C@@H]2O" What is its recorded IC50?
## Result > 10 µM

====

Measured inhibition at 10 µM values are reported for all entries that follow.
# Target: hERG (KCNH2) (Homo sapiens, UniProt Q12809)
# Sequence (Q12809 whole entry): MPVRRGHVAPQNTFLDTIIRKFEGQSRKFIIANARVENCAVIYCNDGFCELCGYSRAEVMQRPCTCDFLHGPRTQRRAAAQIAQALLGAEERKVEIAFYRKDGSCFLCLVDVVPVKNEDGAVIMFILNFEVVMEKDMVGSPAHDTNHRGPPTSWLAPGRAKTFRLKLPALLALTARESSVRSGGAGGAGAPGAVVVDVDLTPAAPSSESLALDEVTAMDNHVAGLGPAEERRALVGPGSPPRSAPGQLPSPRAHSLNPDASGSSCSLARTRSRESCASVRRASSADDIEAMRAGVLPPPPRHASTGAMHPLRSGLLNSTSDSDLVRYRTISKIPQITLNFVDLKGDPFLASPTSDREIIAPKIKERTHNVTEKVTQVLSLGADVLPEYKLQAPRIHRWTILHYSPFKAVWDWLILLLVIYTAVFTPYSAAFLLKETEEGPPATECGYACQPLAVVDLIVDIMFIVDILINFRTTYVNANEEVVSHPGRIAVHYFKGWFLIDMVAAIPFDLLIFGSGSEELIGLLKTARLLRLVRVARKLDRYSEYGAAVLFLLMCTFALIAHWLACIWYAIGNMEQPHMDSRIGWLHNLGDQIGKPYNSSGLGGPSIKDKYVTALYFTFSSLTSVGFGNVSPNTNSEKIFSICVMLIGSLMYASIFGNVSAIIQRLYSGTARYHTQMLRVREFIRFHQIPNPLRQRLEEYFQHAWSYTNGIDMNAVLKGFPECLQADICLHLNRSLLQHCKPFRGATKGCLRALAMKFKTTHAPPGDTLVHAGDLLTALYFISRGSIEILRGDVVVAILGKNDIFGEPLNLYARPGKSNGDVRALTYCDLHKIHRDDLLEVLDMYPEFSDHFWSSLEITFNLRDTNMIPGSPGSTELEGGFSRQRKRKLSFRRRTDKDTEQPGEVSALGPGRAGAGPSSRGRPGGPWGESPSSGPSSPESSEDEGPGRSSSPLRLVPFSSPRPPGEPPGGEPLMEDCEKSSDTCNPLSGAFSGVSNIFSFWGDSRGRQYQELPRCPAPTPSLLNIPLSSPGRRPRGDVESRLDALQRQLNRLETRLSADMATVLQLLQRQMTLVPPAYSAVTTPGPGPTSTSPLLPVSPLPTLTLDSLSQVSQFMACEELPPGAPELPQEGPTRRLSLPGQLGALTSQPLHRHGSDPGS
# Method description: Inhibition of human ERG at 10 uM by PDSP screening
Respond with a number, then the unit of measure.

| Compound structure | inhibition at 10 µM |
| --- | --- |
| CNC(=O)[C@@]12C[C@@H]1[C@@H](n1cnc3c(NC)nc(C#Cc4cnn(C)c4)nc31)[C@H](O)[C@@H]2O | 28% |

# context switch: different compound, same inhibition at 10 µM
## Task I'd like to know its inhibition at 10 µM. The compound in question is "CNC(=O)[C@@]12C[C@@H]1[C@@H](n1cnc3c(NC)nc(C#Cc4ccco4)nc31)[C@H](O)[C@@H]2O"
## Result 21%

====

# Target: UniProtKB P30542
# Sequence (whole entry): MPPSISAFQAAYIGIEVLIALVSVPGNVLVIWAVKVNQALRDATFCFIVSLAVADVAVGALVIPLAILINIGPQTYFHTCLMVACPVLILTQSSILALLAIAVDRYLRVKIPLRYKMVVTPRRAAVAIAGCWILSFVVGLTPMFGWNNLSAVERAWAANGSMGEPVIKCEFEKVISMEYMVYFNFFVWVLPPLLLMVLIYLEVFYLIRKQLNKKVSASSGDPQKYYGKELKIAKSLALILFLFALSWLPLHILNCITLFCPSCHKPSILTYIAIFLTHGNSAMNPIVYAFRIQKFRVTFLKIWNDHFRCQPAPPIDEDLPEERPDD
# Method description: Displacement of [3H]R-PIA from human recombinant A1 adenosine receptor expressed in CHO cells at 10 uM after 60 mins by liquid scintillation counting
# Type: cell-based
Metric name: inhibition (%)
Expressed in %, but write only the number.

| Compound | inhibition (%) |
| --- | --- |
| CNC(=O)[C@@]12C[C@@H]1[C@@H](n1cnc3c(NC)nc(C#Cc4ccco4)nc31)[C@H](O)[C@@H]2O | 30 |

## Task # query: inhibition of entry "CNC(=O)[C@@]12C[C@@H]1[C@@H](n1cnc3c(NC)nc(C#Cc4ccc(CO)cc4)nc31)[C@H](O)[C@@H]2O"
## Result 16

## Task Endpoint output: inhibition of "CNC(=O)[C@@]12C[C@@H]1[C@@H](n1cnc3c(NC)nc(C#Cc4ccc(F)cc4)nc31)[C@H](O)[C@@H]2O" . Value?
## Result 27

## Task I have this compound here, "CNC(=O)[C@@]12C[C@@H]1[C@@H](n1cnc3c(NC)nc(C#Cc4cnccn4)nc31)[C@H](O)[C@@H]2O" , and I need its recorded inhibition.
## Result 37

====

# Target: Adenosine receptor A1 (Homo sapiens)
# Method description: Displacement of [3H]R-PIA from human recombinant A1 adenosine receptor expressed in CHO cells at 10 uM after 60 mins by liquid scintillation counting
# Format: cell-based
inhibition for assorted compounds
// return numeric value only (unit: %, not printed)

Worked examples follow.
| Compound structure | inhibition [%] |
| --- | --- |
| CNC(=O)[C@@]12C[C@@H]1[C@@H](n1cnc3c(NC)nc(C#Cc4ccc(Br)s4)nc31)[C@H](O)[C@@H]2O | 18 |
| CNC(=O)[C@@]12C[C@@H]1[C@@H](n1cnc3c(NC)nc(C#Cc4ccc(Cl)cc4)nc31)[C@H](O)[C@@H]2O | 13 |
| CNC(=O)[C@@]12C[C@@H]1[C@@H](n1cnc3c(NC)nc(C#Cc4ccsc4)nc31)[C@H](O)[C@@H]2O | 11 |

## Task Quick one: inhibition for "CNC(=O)[C@@]12C[C@@H]1[C@@H](n1cnc3c(NC)nc(C#CC4CCCCC4)nc31)[C@H](O)[C@@H]2O" ?
## Result 15

====

# Target: Cytochrome P450 2D6 (Homo sapiens)
# Sequence (P10635 whole entry): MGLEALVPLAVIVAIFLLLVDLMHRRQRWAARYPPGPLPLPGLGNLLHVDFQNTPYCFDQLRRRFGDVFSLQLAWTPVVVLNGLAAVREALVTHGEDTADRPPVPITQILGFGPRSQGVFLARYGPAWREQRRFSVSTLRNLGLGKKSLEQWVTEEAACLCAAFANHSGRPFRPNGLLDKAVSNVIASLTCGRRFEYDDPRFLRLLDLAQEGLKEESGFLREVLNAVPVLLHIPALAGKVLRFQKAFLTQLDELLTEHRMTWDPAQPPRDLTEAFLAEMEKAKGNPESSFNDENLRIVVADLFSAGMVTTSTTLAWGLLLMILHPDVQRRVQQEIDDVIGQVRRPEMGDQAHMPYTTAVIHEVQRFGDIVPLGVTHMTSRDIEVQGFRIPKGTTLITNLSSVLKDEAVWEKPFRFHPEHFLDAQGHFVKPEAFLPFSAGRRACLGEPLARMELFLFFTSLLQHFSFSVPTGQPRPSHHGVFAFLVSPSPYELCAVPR
Metric name: IC50 (µM)
Provide the reading as a plain figure in µM.

## Task Checklist item: IC50 tested on Cytochrome P450 2D6 (Homo sapiens), entry "CNC(=O)[C@@]12C[C@@H]1[C@@H](n1cnc3c(NC)nc(C#Cc4ccc(Br)s4)nc31)[C@H](O)[C@@H]2O" , value?
## Result 7.4

====

# Target: Cytochrome P450 3A4 (Homo sapiens, UniProt P08684)
# Sequence (P08684 whole entry): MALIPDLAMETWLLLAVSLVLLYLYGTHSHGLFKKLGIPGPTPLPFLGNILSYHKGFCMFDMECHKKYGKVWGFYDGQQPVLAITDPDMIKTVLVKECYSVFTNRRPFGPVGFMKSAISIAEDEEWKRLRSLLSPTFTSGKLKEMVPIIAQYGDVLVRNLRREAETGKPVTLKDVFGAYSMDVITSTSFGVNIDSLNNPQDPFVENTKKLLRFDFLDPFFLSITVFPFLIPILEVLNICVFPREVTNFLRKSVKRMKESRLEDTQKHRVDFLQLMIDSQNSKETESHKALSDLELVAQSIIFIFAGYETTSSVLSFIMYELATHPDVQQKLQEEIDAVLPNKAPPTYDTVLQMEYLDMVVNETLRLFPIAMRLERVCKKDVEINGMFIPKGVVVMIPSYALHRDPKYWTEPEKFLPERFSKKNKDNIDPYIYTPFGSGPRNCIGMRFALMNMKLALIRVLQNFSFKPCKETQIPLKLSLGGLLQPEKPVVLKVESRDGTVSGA
Metric name: IC50

## Task Lab note: need IC50 with Cytochrome P450 3A4 (Homo sapiens, UniProt P08684) for entry "CNC(=O)[C@@]12C[C@@H]1[C@@H](n1cnc3c(NC)nc(C#Cc4ccc(Cl)s4)nc31)[C@H](O)[C@@H]2O" , please look it up.
## Result > 10 µM

====

Reported inhibition values for a set of compounds
# Target: Adenosine receptor A2a (Homo sapiens) (UniProt P29274)
# Sequence (P29274 whole entry): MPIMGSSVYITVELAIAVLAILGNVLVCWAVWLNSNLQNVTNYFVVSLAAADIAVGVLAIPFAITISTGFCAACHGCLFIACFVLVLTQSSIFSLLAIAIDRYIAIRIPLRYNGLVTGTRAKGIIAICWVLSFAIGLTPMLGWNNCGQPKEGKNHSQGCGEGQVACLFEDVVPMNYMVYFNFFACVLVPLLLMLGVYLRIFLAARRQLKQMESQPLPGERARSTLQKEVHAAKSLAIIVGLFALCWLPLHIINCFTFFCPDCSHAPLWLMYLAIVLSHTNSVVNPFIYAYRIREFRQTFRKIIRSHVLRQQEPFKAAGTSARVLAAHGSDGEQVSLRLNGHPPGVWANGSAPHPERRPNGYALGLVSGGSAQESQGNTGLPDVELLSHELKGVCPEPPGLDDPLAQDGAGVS
# Method description: Displacement of [3H]CGS21680 from human recombinant A2A adenosine receptor expressed in HEK293 cells at 10 uM after 60 mins by liquid scintillation counting
# Format: cell-based
// units = %; emit number, no label

| Compound structure | Unit name | Measured number |
| --- | --- | --- |
| CNC(=O)[C@@]12C[C@@H]1[C@@H](n1cnc3c(NC)nc(C#Cc4ccccc4OC)nc31)[C@H](O)[C@@H]2O | % | 20 |
| CNC(=O)[C@@]12C[C@@H]1[C@@H](n1cnc3c(NC)nc(C#Cc4ccc(CO)cc4)nc31)[C@H](O)[C@@H]2O | % | 11 |
| CNC(=O)[C@@]12C[C@@H]1[C@@H](n1cnc3c(NC)nc(C#Cc4cc(C)c(C)o4)nc31)[C@H](O)[C@@H]2O | % | 21 |
| CCc1ccc(C#Cc2nc(NC)c3ncn([C@H]4[C@H](O)[C@H](O)[C@]5(C(=O)NC)C[C@H]45)c3n2)o1 | % | 4 |
| CNC(=O)[C@@]12C[C@@H]1[C@@H](n1cnc3c(NC)nc(C#Cc4ccc(Cl)s4)nc31)[C@H](O)[C@@H]2O | % | 24 |

## Task Record request: inhibition value, item "CNC(=O)[C@@]12C[C@@H]1[C@@H](n1cnc3c(NC)nc(C#Cc4cc5ccccc5o4)nc31)[C@H](O)[C@@H]2O"
## Result 18

## Task Param item = "CNC(=O)[C@@]12C[C@@H]1[C@@H](n1cnc3c(NC)nc(C#Cc4ccco4)nc31)[C@H](O)[C@@H]2O" ; retrieve measured inhibition.
## Result 18
